Origin of measurements: PubChem BioAssay (NCI)

# Test system: A549/ATCC NSCLC
# testProtocol: NCI-60 one-dose screen, 48 h (100 = growth as untreated, 0 = no growth, -100 = all killed)
# measurementContext: 10 µM unless noted
The panel holds about 83,000 compounds, 20% with a hit somewhere; the sample as a whole holds those more often. Calls of active or inactive are those of the source. Rule for the calls: active = growth percent below 10; inactive = the rest.
recordedMetric: growth

IN: Bench note: what growth did `CCc1ccc(NC(=O)N[C@@H](Cc2cccc(C)c2)C(=O)N[C@@H]2C(=O)N3CCC[C@H]3C(=O)N3CCCC[C@H]3C(=O)N[C@@H](CO)C(=O)N3C[C@H](C)C[C@H]3C(=O)O[C@H]2C)c(F)c1` show?
OUT: 27.9% (inactive)

IN: // next record `Cc1cn(-c2cc(NC(=O)c3cncc(C#Cc4cnc5ccc(O[C@H]6CCOC6)nn45)c3)cc(C(F)(F)F)c2)cn1`
OUT: 91.7% (inactive)

IN: For `O=c1cc(-c2ccccc2)nc2sc(-c3c[nH]c4ccc(F)cc34)nn12` then?
OUT: 58.7% (inactive)

IN: What do we get for `Cn1c2ccc(Br)cc2c2c3c(c4c5cc(F)ccc5oc4c21)C(=O)N(O)C3=O` ?
OUT: 98.4% (inactive)

IN: Ok, now `CC(=O)NC(C)(C)C(=O)N1CCC[C@H]1C(=O)NC(C)(C)C(=O)N[C@@H](C)C(=O)NC(C)(C)C(=O)N[C@@H](C)C(=O)N[C@@H](CCC(N)=O)C(=O)NC(C)(C)C(=O)N[C@H](C(=O)NC(C)(C)C(=O)NCC(=O)N[C@@H](CC(C)C)C(=O)NC(C)(C)C(=O)N1CCC[C@H]1C(=O)N[C@H](C(=O)NC(C)(C)C(=O)NC(C)(C)C(=O)N[C@@H](CCC(N)=O)C(=O)N[C@@H](CCC(N)=O)C(=O)N[C@H](CO)Cc1ccccc1)C(C)C)C(C)C`
OUT: 49.4% [4.25 µM] (inactive)
